Items are presented alongside their recorded pKi.
- measurement_target: JNK1α1 (Homo sapiens)
- Construct: catalytic domain containing amino acids 1-364 and N-terminal hexahistidine tag; hexahistidine (His6) (N); made in house; host or cells: E. coli BL21 (DE3)
- measurement_protocol: Coupled spectrophotometric (PK/LDH) JNK1α1 assay: % inhibition and Ki determination
- Assay type: biochemical
- recorded_conditions: JNK-1
Worth noting: pKi values are minus log10 of concentrations stated in mol/L.

Solved cases below.
CS(=O)(=O)N[C@H]1CC[C@H](Nc2ncc3cccc(OC4CCOC4)c3n2)CC1 (stereo partly drawn) on JNK1α1 (Homo sapiens) gives pKi = 6.38

Item: O=C(NC1CCN(c2cccnn2)CC1)c1cccc2cnc(N[C@H]3CC[C@H](O)CC3)nc12 | System: JNK1α1 (Homo sapiens) | pKi: 6.86

Consider the additional compound presented here.
The recorded pKi with JNK1α1 (Homo sapiens) for O=C(Cn1nc(C(F)(F)F)c2c1CCCC2)Nc1cc2cc(-c3cn[nH]c3)ccc2cn1 was 8.70

---

- measurement_target: JNK1α1 (Homo sapiens, UniProt P45983)
- Construct: catalytic domain containing amino acids 1-364 and N-terminal hexahistidine tag; hexahistidine (His6) (N); made in house; host or cells: E. coli BL21 (DE3)
- Sequence (P45983 1-364): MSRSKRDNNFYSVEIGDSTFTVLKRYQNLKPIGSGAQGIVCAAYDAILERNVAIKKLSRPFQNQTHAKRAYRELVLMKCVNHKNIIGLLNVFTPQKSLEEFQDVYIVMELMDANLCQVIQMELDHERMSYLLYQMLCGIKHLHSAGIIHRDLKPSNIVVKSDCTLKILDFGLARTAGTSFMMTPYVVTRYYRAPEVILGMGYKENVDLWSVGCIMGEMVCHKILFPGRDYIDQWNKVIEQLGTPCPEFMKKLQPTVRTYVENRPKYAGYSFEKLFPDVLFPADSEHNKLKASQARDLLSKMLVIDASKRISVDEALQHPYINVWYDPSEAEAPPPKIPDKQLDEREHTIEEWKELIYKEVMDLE
- measurement_protocol: Coupled spectrophotometric (PK/LDH) JNK1α1 assay: % inhibition and Ki determination
- Format: biochemical
- recorded_conditions: @1 uM; read-out: % Inhibition JNK-1
// class assignment uses inhibition at 1 µM with these ranges: A: < 20%; B: ≥ 20% and < 30%; C: ≥ 30%

Sample answers from the record:
Categorize the following entry: Cc1nnc(CNC(=O)c2cccc3cnc(N[C@H]4CC[C@H](O)CC4)nc23)o1 [Example 514]
A

Band of O=C(NCc1nc(-c2ccccc2)no1)c1cccc2cnc(N[C@H]3CC[C@H](O)CC3)nc12 [Example 513] ?
B

Given CCc1ccc(C)nc1NC(=O)c1cccc2cnc(N[C@H]3CC[C@H](O)CC3)nc12 [Example 314] , name the class its inhibition at 1 µM places it in.
A

# bin label for O=C(NCCc1nc2ccccc2[nH]1)c1cccc2cnc(N[C@H]3CC[C@H](O)CC3)nc12 [Example 480]
A

Class? Entry: Cn1nc(-c2ccncc2)cc1NC(=O)c1cccc2cnc(N[C@H]3CC[C@H](O)CC3)nc12 [Example 317]
C

---
Would you mind sorting O=C(NCCn1ccccc1=O)c1cccc2cnc(N[C@H]3CC[C@H](O)CC3)nc12 [Example 528] into the appropriate category?
B

For the record Cc1nnc(NC(=O)c2cccc3cnc(N[C@H]4CC[C@H](O)CC4)nc23)o1 [Example 323] , report the class its inhibition at 1 µM corresponds to.
C

Bin? O=C(N[C@H](CO)CC1CCCCC1)c1ccc2cnc(NC3CCC3)nc2c1 [Example 428]
A

Class? Entry: Cn1c(CCNC(=O)c2cccc3cnc(N[C@H]4CC[C@H](O)CC4)nc23)nc2cccnc21 [Example 520]
A

In plain terms, what class is O=C(NCCC1CCCCO1)c1cccc2cnc(N[C@H]3CC[C@H](O)CC3)nc12 (stereo partly shown) [Example 515] ?
A

Please classify: O[C@H]1CC[C@H](Nc2ncc3ccc(OCc4ccccc4CN4CCCC4)cc3n2)CC1 [Example 297]
B

Hello team, could you let me know which band the following compound falls into: O[C@H]1CC[C@H](Nc2ncc3ccc(OC4CCN(c5cccnn5)CC4)cc3n2)CC1 [Example 293]
C

Dear colleague, I would appreciate it if you could identify the bin for CN(C)C(C)(C)COc1ccc2cnc(N[C@H]3CC[C@H](O)CC3)nc2c1 [Example 269] and reply at your convenience.
B

Tag the class for CCn1cc(CNC(=O)c2cccc3cnc(N[C@H]4CC[C@H](O)CC4)nc23)cn1 [Example 489]
A

Textbook exercise: identify the category of the compound given here, O=C(NCCO)c1ccc2cnc(NC3CCCCC3)nc2c1 [Example 426] , according to its measured value.
B

Please report the category associated with O[C@H]1CC[C@H](Nc2ncc3ccc(OC[C@@H]4CCCN4Cc4ccccc4)cc3n2)CC1 [Example 276] , nothing else.
B

Category lookup for the compound CC(COc1cccc2cnc(N[C@H]3CC[C@H](O)CC3)nc12)N(C)C (stereo partly shown) [Example 266]
A

Bin this entry: O[C@H]1CC[C@H](Nc2ncc3ccc(OC[C@H]4CCCN4Cc4ccccc4)cc3n2)CC1 [Example 294]
B

Sort into band: Cc1noc(C(NC(=O)c2cccc3cnc(N[C@H]4CC[C@H](O)CC4)nc23)c2ccccc2)n1 (stereo partly shown) [Example 527]
C
